Where do the numbers come from? From paper PMC9027083.

# TESTED TARGET: T1, recombinant MBP-EDIII of DENV1 (Dengue virus 1, strain Guiana/FGA89/1989, strain)
# T1 construct: also called DENV1 EDIII; envelope protein domain III of DENV1; not shown: MBP, N-terminal, kept
# ASSAY TEXT: SPR
# EXPERIMENTAL PARAMETERS: both partners purified
PROPERTY MEASURED: kon (M⁻¹ s⁻¹)
Reply numerically in M⁻¹ s⁻¹, unit not repeated.

Sample 1A1D-2 Fab A54E-Y105R double mutant (Fab, V domains shown) VH: EVQLQQSGAELVKPGASVKLSCTASGFNIKDTYMHWVKQRPEQGLEWIGRIDPENGYSKYDPKFQGKATITADTSSNAAYLQLSSLTSEDTAVYFCARDYEGFARWGQGTLVTVSS VL: DIVLTQSPASLAVSLGQRATISCRASESVVRYGNSFMHWYQQKPGQPPKLLIYRASSLESGIPTRFSGSGSRTDFTLTINPVEADDVATYYCQQTNVDPWAFGGGTKLEIK — what was its kon?
43900
